Assignment: determine reported protein stability index for the given variants.
B1: C9orf25 (parent)
chain: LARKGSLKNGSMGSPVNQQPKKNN

- Variants of: B1
- test_method_notes: protein stability index of a GFP-peptide fusion (GPS, HEK-293T) (PSI 1-6); higher = more stable;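 note: lentivirally expressed fusions sorted by FACS into six bins by GFP to DsRed ratio, PSI derived from sequencing read proportions per bin multiplied by bin number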
- measurement_conditions: c terminus: a fixed tail appended
# print the numeric value only

Record "LARKGSLQNGSMGSPVNQQPKKNN" . Reported protein stability index: 4.84

Record "LARFGSLKNGSMGSPVNQQPKKNN" . Reported protein stability index: 5.08

Record "LARKGSLKNGSMFSPVNQQPKKNN" . Reported protein stability index: 4.06

Record "LIRKGSLKNGSMGSPVNQQPKKNN" . Reported protein stability index: 4.37

Record "LARKGSLKNGSMGSPVNQQPRKNN" . Reported protein stability index: 4.82

Record "LARKGSLKNGSMGSHVNQQPKKNN" . Reported protein stability index: 4.24

Record "LARKGSLKNGSMGSPVYQQPKKNN" . Reported protein stability index: 4.27

Record "LARKGSLKNGSMGSPVNQQPKFNN" . Reported protein stability index: 3.56

Record "LAEKGSLKNGSMGSPVNQQPKKNN" . Reported protein stability index: 4.69

Record "LARKHSLKNGSMGSPVNQQPKKNN" . Reported protein stability index: 4.49

Record "LARKGSLKNGSMGSPVNQQPKKVN" . Reported protein stability index: 4.59

Record "LARKGSLKNGSRGSPVNQQPKKNN" . Reported protein stability index: 4.7

Record "LARDGSLKNGSMGSPVNQQPKKNN" . Reported protein stability index: 4.88

Record "LARKGSLKNGSMGSPVNQCPKKNN" . Reported protein stability index: 4.68

Record "LARKGSLKNGSMGSPVNQQYKKNN" . Reported protein stability index: 4.32

Record "LARKGSLKNGSMGSPVNQQPKKKN" . Reported protein stability index: 4.61

Record "LARKGSLKNGSMGSPVNQQPDKNN" . Reported protein stability index: 5.25

Record "LARKGSLKNGSMGSPVRQQPKKNN" . Reported protein stability index: 4.47

Record "LARKPSLKNGSMGSPVNQQPKKNN" . Reported protein stability index: 4.48

Record "LARKGSRKNGSMGSPVNQQPKKNN" . Reported protein stability index: 4.14

Record "LTRKGSLKNGSMGSPVNQQPKKNN" . Reported protein stability index: 4.54

Record "LARKVSLKNGSMGSPVNQQPKKNN" . Reported protein stability index: 4.26

Record "LARKGSLKNGSMGSPVNQQPMKNN" . Reported protein stability index: 4.21

Record "LARKGSLKNGSYGSPVNQQPKKNN" . Reported protein stability index: 4.4

Record "LARKGSLKNRSMGSPVNQQPKKNN" . Reported protein stability index: 4.12

Record "LARKGSLKNGSMTSPVNQQPKKNN" . Reported protein stability index: 4.79

Record "LARKGSLKNGSMGSPVGQQPKKNN" . Reported protein stability index: 4.27

Record "LARKWSLKNGSMGSPVNQQPKKNN" . Reported protein stability index: 4.06

Record "LARKGSLKNGSMGSPVNQQVKKNN" . Reported protein stability index: 5.07

Record "LARKGSLKNGSMGSPVNQQPKKNW" . Reported protein stability index: 3.88

Record "LARKGSLKNGSMGSPHNQQPKKNN" . Reported protein stability index: 5.1

Record "LARHGSLKNGSMGSPVNQQPKKNN" . Reported protein stability index: 4.68

Record "LARKGSLKNGSMGSMVNQQPKKNN" . Reported protein stability index: 4.66

Record "LAMKGSLKNGSMGSPVNQQPKKNN" . Reported protein stability index: 4.85

Record "LARKGSDKNGSMGSPVNQQPKKNN" . Reported protein stability index: 4.01

Record "LARKGSLKLGSMGSPVNQQPKKNN" . Reported protein stability index: 3.67

Record "LARNGSLKNGSMGSPVNQQPKKNN" . Reported protein stability index: 4.25

Record "WARKGSLKNGSMGSPVNQQPKKNN" . Reported protein stability index: 4.3

Record "LARKGSLKNGGMGSPVNQQPKKNN" . Reported protein stability index: 5.27

Record "LARKGSLKNGSMGSPVNQQQKKNN" . Reported protein stability index: 4.72

Record "LARKGSLKNGSMGSPVNQQPKTNN" . Reported protein stability index: 4.28

Record "LARKGSLKNGSMGSPVNQQTKKNN" . Reported protein stability index: 3.92

Record "LARKGSLKNGSMGSPVNQQPKSNN" . Reported protein stability index: 4.41

Record "LARKGDLKNGSMGSPVNQQPKKNN" . Reported protein stability index: 5.1

Record "LARKGSLKNGSMGEPVNQQPKKNN" . Reported protein stability index: 4.75

Record "LARKGRLKNGSMGSPVNQQPKKNN" . Reported protein stability index: 3.99

Record "LARKGSLKNGSMGSPVVQQPKKNN" . Reported protein stability index: 4.6

Record "LARKGSLKNGSMGSPTNQQPKKNN" . Reported protein stability index: 4.75

Record "LARKGSLKNGSMGCPVNQQPKKNN" . Reported protein stability index: 4.06

Record "LARKGSLSNGSMGSPVNQQPKKNN" . Reported protein stability index: 4.73

Record "LARKGCLKNGSMGSPVNQQPKKNN" . Reported protein stability index: 4.05

Record "DARKGSLKNGSMGSPVNQQPKKNN" . Reported protein stability index: 5.07

Record "LARKGSLKNGSMGSPLNQQPKKNN" . Reported protein stability index: 4.64

Record "LARKGSLKMGSMGSPVNQQPKKNN" . Reported protein stability index: 4.18

Record "LARKGSLINGSMGSPVNQQPKKNN" . Reported protein stability index: 4.76

Record "LARKGSLKNGSMGSPVNQTPKKNN" . Reported protein stability index: 4.74

Record "LARKGSLKDGSMGSPVNQQPKKNN" . Reported protein stability index: 5.27

Record "NARKGSLKNGSMGSPVNQQPKKNN" . Reported protein stability index: 5.07

Record "LARKGSLKNGSMGSPVNQQMKKNN" . Reported protein stability index: 4.56

Record "LARKGSLKNGSMVSPVNQQPKKNN" . Reported protein stability index: 4.69

Record "LARKGSLKNGSMGSPVNQQPKNNN" . Reported protein stability index: 4.43

Record "LARKGSLKNGSMGSPVNQMPKKNN" . Reported protein stability index: 4.74

Record "LAPKGSLKNGSMGSPVNQQPKKNN" . Reported protein stability index: 5.03

Record "LARKGSLKNGSMGSPVNQQHKKNN" . Reported protein stability index: 3.98

Record "LARKGSLKNGSMGWPVNQQPKKNN" . Reported protein stability index: 4.13

Record "LARKGSVKNGSMGSPVNQQPKKNN" . Reported protein stability index: 3.39

Record "LARKGSLKNGSMGHPVNQQPKKNN" . Reported protein stability index: 4.96

Record "LARKGSLKNGSMGSPVNQQWKKNN" . Reported protein stability index: 4.1

Record "LARKGALKNGSMGSPVNQQPKKNN" . Reported protein stability index: 4.33

Record "LARKGSLKNGSMGSPVNQQPKANN" . Reported protein stability index: 4.51

Record "LARKGSLKNGSMGSPVNQQPKKYN" . Reported protein stability index: 3.82

Record "LARKFSLKNGSMGSPVNQQPKKNN" . Reported protein stability index: 4

Record "HARKGSLKNGSMGSPVNQQPKKNN" . Reported protein stability index: 4.95

Record "LARKGSLKNGSMGSPVNQQPKGNN" . Reported protein stability index: 4.54

Record "LARKGSLKNGSMGSGVNQQPKKNN" . Reported protein stability index: 5

Record "LARKGSLKNGSMGSPVNQQPKKGN" . Reported protein stability index: 4.66

Record "MARKGSLKNGSMGSPVNQQPKKNN" . Reported protein stability index: 4.89

Record "LARKGSLKNGSMGSTVNQQPKKNN" . Reported protein stability index: 4.95

Record "LARKGSLKNGSMGSPVNQQPKYNN" . Reported protein stability index: 3.81

Record "LARKGSLKIGSMGSPVNQQPKKNN" . Reported protein stability index: 4.64

Record "LWRKGSLKNGSMGSPVNQQPKKNN" . Reported protein stability index: 4.03

Record "LARKGSLKNGSMGSPVNQQPKKNK" . Reported protein stability index: 5.08

Record "LARKGSLKNGSMGSPVNWQPKKNN" . Reported protein stability index: 3.67

Record "LARKGSLKNESMGSPVNQQPKKNN" . Reported protein stability index: 5.04

Record "LARKGELKNGSMGSPVNQQPKKNN" . Reported protein stability index: 5.15

Record "LARKGSMKNGSMGSPVNQQPKKNN" . Reported protein stability index: 4.66

Record "LARKGSLKNQSMGSPVNQQPKKNN" . Reported protein stability index: 4.34

Record "LARKGSLKNGSMGSPVNCQPKKNN" . Reported protein stability index: 4.6

Record "LARKGSLKNGSMGSPVNQNPKKNN" . Reported protein stability index: 4.72

Record "LARKGSLKNGSMGSPVNQQPKKMN" . Reported protein stability index: 3.73

Record "LARKGSLKYGSMGSPVNQQPKKNN" . Reported protein stability index: 4.64
